Tested on: NCI-H522
Assay: Anchorage-independent colony-forming assay
Type: cell-based, human
Details: NCI-H522, colony-forming assay
Description: Testing was conducted employing standard tissue culture techniques and an anchorage-independent colony-forming assay. MT103 was tested against the lung carcinoma cell lines NCI-H226, NCI-H522, and HOP-92. […] The cell count was determined with a Coulter Model Z1 cell counter and viability was measured with propidium iodide staining followed by analysis on a Coulter EPICS XL flow cytometer. […] The colonies per plate were counted on Day 14 after the initiation of treatment. […]

- compound: "CC1(C)C2CC[C@@]1(CS(=O)(=O)N(C1CCCCC1)C1CCCCC1)C(O)C2 (stereo partly shown)"
  experimental_target: "NCI-H522"
  IC50 [µM]: 81.7

---

system: RPMI-8226; assay: NCI 60 cell-line test; assay type: cell-based, human; conditions: RPMI-8226 (Leukemia); read-out: LC50 (the source's name)

- molecule: "CC1(C)C2CC[C@@]1(CS(=O)(=O)N(C1CCCCC1)C1CCCCC1)C(O)C2 (stereo partly shown)"
  CC50: "> 100 µM"

---

test system: HOP-62; assay: NCI 60 cell-line test; type: cell-based, human; details: HOP-62 (Non-Small Cell Lung Cancer); read-out: G150
pIC50: −log10 of the molar value.
property: pIC50

- compound: "CC1(C)C2CC[C@@]1(CS(=O)(=O)N(C1CCCCC1)C1CCCCC1)C(O)C2 (stereo partly shown)"
  property: "pIC50"
  val: 4.24

---

system: HOP-92; test: NCI 60 cell-line test; type: cell-based, human; conditions: HOP-92 (Non-Small Cell Lung Cancer); read-out: LC50 (the source's name)
property: CC50

- molecule: "CC1(C)C2CC[C@@]1(CS(=O)(=O)N(C1CCCCC1)C1CCCCC1)C(O)C2 (stereo partly shown)"
  property: "CC50"
  val: "> 100 µM"

---

System: HCT-116
Assay: NCI 60 cell-line test
Assay type: cell-based, human
Conditions: HCT-116 (Colon Cancer); read-out: LC50 (the source's name)
Protocol: Methodology: The NCI conducted a test of the MT103 drug against 60 human cell lines, with a minimum of five concentrations of MT103 at 10-fold dilutions. […] Following drug addition, the plates were incubated for an additional 48 h at 37° C., 5% CO2, 95% air, and 100% relative humidity. […] Bound stain was subsequently solubilized with 10 mM trizma base, and the absorbance was read on an automated plate reader at a wavelength of 515 nm. […] Percentage growth inhibition was calculated as: […]

- compound: "CC1(C)C2CC[C@@]1(CS(=O)(=O)N(C1CCCCC1)C1CCCCC1)C(O)C2 (stereo partly shown)"
  CC50: "> 100 µM"

---

system: HCT-15; test: NCI 60 cell-line test; format: cell-based, human; conditions: HCT-15 (Colon Cancer); read-out: LC50 (the source's name)
property: CC50

- molecule: "CC1(C)C2CC[C@@]1(CS(=O)(=O)N(C1CCCCC1)C1CCCCC1)C(O)C2 (stereo partly shown) [MT103]"
  val: "> 100 µM"

---

test system: SN12C; assay: NCI 60 cell-line test; assay type: cell-based, human; conditions: SN12C (Renal Cancer); read-out: LC50 (the source's name)

- molecule: "CC1(C)C2CC[C@@]1(CS(=O)(=O)N(C1CCCCC1)C1CCCCC1)C(O)C2 (stereo partly shown)"
  experimental_target: "SN12C"
  CC50: "> 100 µM"

---

Tested on: SK-MEL-2
Experiment: NCI 60 cell-line test
Format: cell-based, human
Conditions: SK-MEL-2 (Melanoma); read-out: LC50 (the source's name)
Description: Methodology: The NCI conducted a test of the MT103 drug against 60 human cell lines, with a minimum of five concentrations of MT103 at 10-fold dilutions. […] Following drug addition, the plates were incubated for an additional 48 h at 37° C., 5% CO2, 95% air, and 100% relative humidity. […] Bound stain was subsequently solubilized with 10 mM trizma base, and the absorbance was read on an automated plate reader at a wavelength of 515 nm. […] Percentage growth inhibition was calculated as: […]
property: CC50

- compound: "CC1(C)C2CC[C@@]1(CS(=O)(=O)N(C1CCCCC1)C1CCCCC1)C(O)C2 (stereo partly shown)"
  val: "> 100 µM"

---

system: ACHN; assay: NCI 60 cell-line test; type: cell-based, human; conditions: ACHN (Renal Cancer); read-out: LC50 (the source's name)
property: CC50

- compound: "CC1(C)C2CC[C@@]1(CS(=O)(=O)N(C1CCCCC1)C1CCCCC1)C(O)C2 (stereo partly shown) [MT103]"
  experimental_target: "ACHN"
  property: "CC50"
  val: "> 100 µM"

---

test system: MDA-MB-435; experiment: NCI 60 cell-line test; type: cell-based, human; details: MDA-MB-435 (Breast Cancer); read-out: LC50 (the source's name)
property: CC50

- molecule: "CC1(C)C2CC[C@@]1(CS(=O)(=O)N(C1CCCCC1)C1CCCCC1)C(O)C2 (stereo partly shown)"
  val: "> 100 µM"

---

System: PC-3
Assay: NCI 60 cell-line test
Type: cell-based, human
Details: PC-3 (Prostate Cancer); read-out: LC50 (the source's name)
Description: Methodology: The NCI conducted a test of the MT103 drug against 60 human cell lines, with a minimum of five concentrations of MT103 at 10-fold dilutions. […] Following drug addition, the plates were incubated for an additional 48 h at 37° C., 5% CO2, 95% air, and 100% relative humidity. […] Bound stain was subsequently solubilized with 10 mM trizma base, and the absorbance was read on an automated plate reader at a wavelength of 515 nm. […] Percentage growth inhibition was calculated as: […]
property: CC50

- molecule: "CC1(C)C2CC[C@@]1(CS(=O)(=O)N(C1CCCCC1)C1CCCCC1)C(O)C2 (stereo partly shown)"
  val: "> 100 µM"
